- system_tested: T1, human CNTN4 antigen expressed on the cell membrane of 293FT cells (human, UniProt Q8IWV2 19-1000)
- T1 construct: whole, on cells; also called Human CNTN4 transfected cell
- T1 sequence (looked up): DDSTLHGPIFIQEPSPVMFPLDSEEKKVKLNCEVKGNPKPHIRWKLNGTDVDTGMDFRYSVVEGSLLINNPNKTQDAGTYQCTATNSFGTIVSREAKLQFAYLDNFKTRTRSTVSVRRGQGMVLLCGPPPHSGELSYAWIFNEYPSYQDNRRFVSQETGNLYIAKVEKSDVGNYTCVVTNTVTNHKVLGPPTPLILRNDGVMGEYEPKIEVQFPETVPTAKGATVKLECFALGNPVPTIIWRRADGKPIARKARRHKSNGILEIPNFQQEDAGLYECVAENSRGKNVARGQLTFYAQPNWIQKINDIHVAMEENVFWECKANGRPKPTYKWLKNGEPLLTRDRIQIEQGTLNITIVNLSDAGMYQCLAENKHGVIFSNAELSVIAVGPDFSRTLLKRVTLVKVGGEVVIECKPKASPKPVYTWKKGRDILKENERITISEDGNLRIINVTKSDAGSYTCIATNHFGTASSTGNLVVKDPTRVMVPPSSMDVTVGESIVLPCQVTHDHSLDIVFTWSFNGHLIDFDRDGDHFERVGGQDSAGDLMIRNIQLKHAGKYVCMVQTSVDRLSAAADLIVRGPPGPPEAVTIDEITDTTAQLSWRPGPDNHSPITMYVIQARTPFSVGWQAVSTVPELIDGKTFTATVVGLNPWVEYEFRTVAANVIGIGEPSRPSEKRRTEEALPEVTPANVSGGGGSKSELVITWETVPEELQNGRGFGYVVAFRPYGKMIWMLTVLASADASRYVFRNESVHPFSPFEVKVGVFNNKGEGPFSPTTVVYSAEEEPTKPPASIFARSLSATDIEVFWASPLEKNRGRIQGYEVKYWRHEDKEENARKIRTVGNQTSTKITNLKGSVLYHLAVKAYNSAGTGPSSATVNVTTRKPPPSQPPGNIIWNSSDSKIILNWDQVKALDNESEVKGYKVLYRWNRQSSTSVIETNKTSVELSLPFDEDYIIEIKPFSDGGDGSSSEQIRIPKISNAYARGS
- assay_details: FACS, 293FT cells transfected with human CNTN4, 40 ug/mL, anti-hFc-PE
result_type: Shift % (%)
Give the value, in units of %, as a plain number.

Prompt: Query: Shift %; subject: anti-CNTN4 IgG A13WB7 (antibody, V domains shown, human IgG4 (S228P)) VH: AVTLDESGGGLHTPGGALSLVCKASGFTFSSYGMAWVRQAPGKGLEWVAGITSSGSSAGYGPAVKGRATISRDNGQSTVRLQLNNLRAEDTATYYCAKDGYIYSGADSDSIDAWGHGTEVIVSS VL: ALTQPSSVSANPGETVKITCSGGGSSSYYNYGWYQQKSPGSAPVTVIYYNDKRPSDIPSRFSGSKSGSTGTLTITGVQAEDEAVYYCGSWDSSTYSDIFGAGTTLTVL
Completion: 86.4
